# Test system: OVCAR-3 cell line
# assay-protocol: MTT cytotoxicity assay in OVCAR-3 ovarian cancer cells
# Format: cell-based, human
# condition: Homo sapiens; OVCAR-3, 72 h incubation, MTT, mean ± SEM of three experiments
API: label(entry) gives satisfied if the entry's IC50 is strictly smaller than 6 µM; on equality or larger values it gives not satisfied.

- molecule: "C=C1C(=O)O[C@@H](CCCCCCCC)[C@H]1C(C)O (mixture of isomers) [(±)-UB031]"
  system-name: "OVCAR-3 cell line"
  group-label: "satisfied"
- molecule: "C=C1C(=O)O[C@@H](CCCCCCCC)[C@H]1C(O)CC (mixture of isomers) [(±)-UB032]"
  system-name: "OVCAR-3 cell line"
  group-label: "not satisfied"
- molecule: "C=C1C(=O)O[C@@H](CCCCCCCC)[C@H]1[C@@H](O)CO (racemic) [(±)-UB035]"
  system-name: "OVCAR-3 cell line"
  group-label: "satisfied"
- molecule: "C=C1C(=O)O[C@@H](CCCCCCCC)[C@H]1C(O)CCCCCC (mixture of isomers) [(±)-UB033]"
  system-name: "OVCAR-3 cell line"
  group-label: "not satisfied"
- molecule: "C=CC(O)[C@H]1C(=C)C(=O)O[C@H]1CCCCCCCC (mixture of isomers) [(±)-UB034]"
  system-name: "OVCAR-3 cell line"
  group-label: "not satisfied"
- molecule: "C=C1C(=O)O[C@@H](CCCCCCCC)[C@H]1C(O)C(O)CO (mixture of isomers) [(±)-UB036]"
  system-name: "OVCAR-3 cell line"
  group-label: "satisfied"
